Taken from the supplement of paper PMC10567573.

B1: SMG5 (parent)
chain: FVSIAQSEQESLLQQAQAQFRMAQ

- Variants of: B1
- procedure details: protein stability index of a GFP-peptide fusion (GPS, HEK-293T) (PSI 1-6); higher = more stable;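 also: lentivirally expressed fusions sorted by FACS into six bins by GFP to DsRed ratio, PSI derived from sequencing read proportions per bin multiplied by bin number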
- protocol conditions: c terminus: a fixed tail appended
Overview of recorded protein stability index for various variants

entry sequence: FMSIAQSEQESLLQQAQAQFRMAQ
protein stability index: 2.9
--
entry sequence: FVPIAQSEQESLLQQAQAQFRMAQ
protein stability index: 2.22
--
entry sequence: FVSIAQSEQESNLQQAQAQFRMAQ
protein stability index: 2.64
--
entry sequence: FVSIAQSEQNSLLQQAQAQFRMAQ
protein stability index: 2.03
--
entry sequence: FVSIAQSEGESLLQQAQAQFRMAQ
protein stability index: 1.95
--
entry sequence: FVSIAQSMQESLLQQAQAQFRMAQ
protein stability index: 1.57
--
entry sequence: FVSIAQSEQESLLQQAQAGFRMAQ
protein stability index: 2.08
--
entry sequence: FVSIAQSEQESQLQQAQAQFRMAQ
protein stability index: 2.66
--
entry sequence: FVSIAQSEQESLLQQAQPQFRMAQ
protein stability index: 1.98
--
entry sequence: FVSIAQSEMESLLQQAQAQFRMAQ
protein stability index: 2.02
--
entry sequence: FVSIAQSEQESLLQQAQQQFRMAQ
protein stability index: 2.04
--
entry sequence: FVSIAQSEQESLLQQARAQFRMAQ
protein stability index: 3.07
--
entry sequence: FVSIAQSEQESLLQQAQAQFRMGQ
protein stability index: 2.46
--
entry sequence: FVSIAQSEQESLLQQAQAMFRMAQ
protein stability index: 2.09
--
entry sequence: FVSIAQSEQESLLQQAQAQFRMAI
protein stability index: 2.11
--
entry sequence: FVSIYQSEQESLLQQAQAQFRMAQ
protein stability index: 1.91
--
entry sequence: FVSIAQSERESLLQQAQAQFRMAQ
protein stability index: 1.85
--
entry sequence: FVSIAQSEQESLLQQAQYQFRMAQ
protein stability index: 2.86
--
entry sequence: FVQIAQSEQESLLQQAQAQFRMAQ
protein stability index: 2.62
--
entry sequence: FVSIAQSEQESLLQQAQAQPRMAQ
protein stability index: 2.75
--
entry sequence: FVSIAQSEQESLLQQATAQFRMAQ
protein stability index: 1.73
--
entry sequence: FVLIAQSEQESLLQQAQAQFRMAQ
protein stability index: 1.87
--
entry sequence: FVSIAQSEQESLLQQANAQFRMAQ
protein stability index: 2.33
--
entry sequence: FVSIAQSEQESLLQQAQAQGRMAQ
protein stability index: 3.13
--
entry sequence: FVSIAQSEQESLLQQAQAHFRMAQ
protein stability index: 1.66
--
entry sequence: FVSIAQSEQESLLQQAGAQFRMAQ
protein stability index: 2.17
--
entry sequence: FVSIAQSEHESLLQQAQAQFRMAQ
protein stability index: 2.2
--
entry sequence: FVSWAQSEQESLLQQAQAQFRMAQ
protein stability index: 2.8
--
entry sequence: EVSIAQSEQESLLQQAQAQFRMAQ
protein stability index: 4.16
--
entry sequence: FVSIAQWEQESLLQQAQAQFRMAQ
protein stability index: 3.26
--
entry sequence: FVSIAQSEQESLLQQAWAQFRMAQ
protein stability index: 1.39
--
entry sequence: FVSIAQSEQEFLLQQAQAQFRMAQ
protein stability index: 1.56
--
entry sequence: FVSIAQEEQESLLQQAQAQFRMAQ
protein stability index: 2.85
--
entry sequence: FVSIAQSEQESLLQQPQAQFRMAQ
protein stability index: 1.88
--
entry sequence: FVSIAQSEQESLLQQAQAQRRMAQ
protein stability index: 2.32
--
entry sequence: FVSIAQSEQESLLGQAQAQFRMAQ
protein stability index: 2.77
--
entry sequence: FVSIAQSEQESLLQQGQAQFRMAQ
protein stability index: 2.09
